Target: T1, Hu CDH3 Dom2 mu (aa 216-327), human/mouse chimeric CDH3 on CHO cells (chimeric hu/mu)
T1 chain: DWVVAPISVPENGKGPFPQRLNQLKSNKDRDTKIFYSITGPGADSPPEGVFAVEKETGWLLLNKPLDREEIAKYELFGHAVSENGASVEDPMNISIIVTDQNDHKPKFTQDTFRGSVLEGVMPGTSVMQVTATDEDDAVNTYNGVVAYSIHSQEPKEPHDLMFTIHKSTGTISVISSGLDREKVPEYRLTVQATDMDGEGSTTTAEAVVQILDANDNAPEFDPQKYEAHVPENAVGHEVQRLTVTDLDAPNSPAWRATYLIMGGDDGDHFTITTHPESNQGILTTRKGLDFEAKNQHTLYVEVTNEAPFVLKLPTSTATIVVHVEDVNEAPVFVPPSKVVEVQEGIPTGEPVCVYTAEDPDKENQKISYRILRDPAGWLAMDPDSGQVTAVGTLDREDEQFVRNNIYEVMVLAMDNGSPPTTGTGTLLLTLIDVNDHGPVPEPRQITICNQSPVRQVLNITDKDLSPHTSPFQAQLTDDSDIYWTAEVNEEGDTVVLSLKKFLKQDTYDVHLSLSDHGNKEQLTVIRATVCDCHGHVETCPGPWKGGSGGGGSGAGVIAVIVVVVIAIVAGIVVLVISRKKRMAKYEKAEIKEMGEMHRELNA
Experiment: flow cytometry, transfected CHO cells; crude undiluted periplasmic scFv extract; anti-FLAG M2 + anti-mouse IgG Fcγ-PE; control PBS/2% FCS
Endpoint name: binding result

CDH3-9 (scFv, Used as crude periplasmic extract and detected through a FLAG tag; also called CDH3-9 scFv) scFv: EVQLVEESGGDLVKPGGSLKLSCAASGFTFSTYGMSWVRQTPDKRLEWVATISSGGHYSYYPDSVKGRFTISRDNAKNTLYLQMSSLKSEDTAMYYCASYYYGSPFAYWGQGTTVTVSSGGGGSGGGGSGGGGSELQMTQSPSSLSASLGERVSLTCRASQDIGSSLNWLQQKPDGTIKRLIYDTSSLDSGVPKRFSGSRSGSDYSLTISSLESEDFGDYYCVQYGSSPLTFGAGTKLEIK ... binds
CDH3-5 (scFv, Used as crude periplasmic extract and detected through a FLAG tag; also called CDH3-5 scFv) scFv: EVQLVEQSGAELVKPGASVKISCKASGYAFSTSWMNWVKQRPGKGLEWIGRIYPGDGETKYNGKFKGKATLTADKSSSTAYMQLSSLTSEDSAVYFCARQRDYGALYALDYWGQGTRVTVSSGGGGSGGGGSGGGGSELMMTQTPASLSASVGETVTFTCRASENIYSYLAWYQQKQGKSPQLLVYNAKTLAEGVPSRFSGSGSGTQFSLKINSLQPEDFGSYYCQHHYVPPYTFGGGTKLEIK ... binds
CDH3-33 scFv (scFv) scFv: EVQLVEQPGAELVRPGTSVKLSCKASGYTFTSYWMHWVKQRPGQGLEWIGVIDTSDSYTIYNQKFKGKATLTVDTSSSTAYMQLSSLTSGDSSVYFCARSGPGYFDVWGQGTTVTVSSGGGGSGGGGSGGGGSELVMTQSPASLSASVGETVTITCRASGNIHNYLAWYQQKQGKSPQLLVYNAKTLADGVPSRFSGSGSGTQYSLKINSLQPEDFGTYYCQHFWSTPYTFGGGTKLEIK ... binds
CDH3-32 scFv (scFv) scFv: EVQLVEQPGAELVRPGTSVKLSCKASGYTFTSYWMHWVKQRPGQGLEWIGVIDTSDSYTIYNQKFKGKATLTVDTSSSTAYMQLSSLTSEDSSVYFCARSGPGYFDVWGQGTTVTVSSGGGGSGGGGSGGGGSELQMTQSPASLSASVGETVTITCRASENIYSYLAWYQQKQGKSPQLLVYNAKTLAEGVPSRFSGSGSGTQFSLKINSLQPEDFGSYYCQHHYGTPYTFGGGTKLEIK ... binds
CDH3-10 scFv (scFv) scFv: EVQLVEESGGGLVKPGGSLKLSCAASGFTFSSYAMSWVRQTPDKRLEWVATISSGGHYTYYPDSVKGRFTISRDNAKNTLYLQMSSLKSEDTAMYYCASYYYGIPFGYWGQGTTVTVSSGGGGSGGGGSGGGGSELVMTQSPSSLSASLGEGVSLTCRASQDIGINLIWLRQEPDGTIKRLIYDTSSLDSGVPKRFSGSRSGSDYSLTISSLESEDFVHYYCLQYGSSPLTFGAGTKLEIK ... binds
CDH3-8 (scFv, Used as crude periplasmic extract and detected through a FLAG tag; also called CDH3-8 scFv) scFv: EVQLVEQSGAEVVKPGASVKITCKASGYAFSSYWMNWVRQRPGKGLEWIGHIYPGDGDTNYNGKFKGKVTLTADKSSNTAYMQLSDLTPEDSAVYFCARDRGSFGAWFAYWGQGTTVTVSSGGGGSGGGGSGGGGSELVMTQTPSSLSASLGDRVTISCRASQDISNYLNWYQQKPDGTVKLLIYYTSRLHSGVPSRFSGSGSGTDYSLTISNLEQEDIATYFCQQGNRNPPTFGGGTKLEIK ... binds

Recorded binding result (binder CDH3-6 scFv (scFv) scFv: EVQLVEESGPELVKPGASVKISCKASGYAFSSSWMNWVKQRPGKGLEWIGRIYPGDGETKYNGKFKGKATLTADKSSSTAYMQLSSLTSEDSAVYFCARQRDYGALYAMDYWGQGTSVTVSSGGGGSGGGGSGGGGSELVMTQSPASLSASVGETVTITCRASDDIYSYLAWYQQKQGKSPQLLVYNAKTLAEGVPSRFSGSGSGTQFSLKINSLQPEDFGTYYCQNHYVTPFTFGAGTKLEIK ): binds
